Below, each entry is listed alongside its reported IC50.
- assayed-system: Serotonin 2 (5-HT2) receptor (Rattus norvegicus)
- experiment-notes: Inhibitory activity by measuring its ability to displace [3H]ketanserin from serotonin receptor in rat brain

Would you kindly share the measured IC50 for `CCCCCCNC(=O)Cc1c(-c2ccccc2)[nH]c2ccccc12` ? > 1000 nM

Moving on to the next compound: `CCCCCN(CCCCC)C(=O)Cc1c(-c2ccc(F)cc2)[nH]c2ccccc12` > 1000 nM

Moving on to the next compound: `CCCCCCN(CCCCCC)C(=O)Cc1c(-c2ccc(F)cc2)[nH]c2ccc(Cl)cc12` > 1000 nM

Moving on to the next compound: `CCCN(CCC)C(=O)Cc1c(-c2ccccc2)[nH]c2cc(F)ccc12` > 1000 nM

Moving on to the next compound: `CCCCCCCCCCNC(=O)Cc1c(-c2ccccc2)[nH]c2ccccc12` > 1000 nM

Moving on to the next compound: `CCCN(CCC)C(=O)Cc1c(-c2ccc(I)cc2)[nH]c2ccccc12` > 1000 nM

Moving on to the next compound: `CCCN(CCC)C(=O)Cc1c(-c2ccc(Br)cc2)[nH]c2ccccc12` > 1000 nM

====

- experiment-notes: Tested for inhibitory activity by measuring its ability to displace [3H]AMPA from glutamate (non-NMDA) receptor in rat brain
- Format: tissue-based
measure: IC50

See these solved cases before continuing.
Would you kindly share the measured IC50 for `O=C(Cc1c(-c2ccc(F)cc2)[nH]c2ccccc12)Nc1ccccc1Br` ? > 1000 nM

Moving on to the next molecule: `CCCCCCN(CCCCCC)C(=S)Cc1c(-c2ccc(F)cc2)[nH]c2ccccc12` > 1000 nM

Moving on to the next molecule: O=C1Cc2c([nH]c3ccccc23)-c2ccccc2N1 [PAULLONE] > 1000 nM

Moving on to the next molecule: `CCCN(CCC)C(=O)Cc1c(-c2ccc(Cl)cc2)n(C)c2ccccc12` > 1000 nM

Moving on to the next molecule: `CCCN(CCC)C(=O)Cc1c(-c2ccc(Cl)cc2)[nH]c2ccccc12` > 1000 nM

***
Would you kindly share the measured IC50 for `O=C(Cc1c(-c2ccccc2)[nH]c2ccccc12)N1CCCC1` ? > 1000 nM

====

- assayed-system: Translocator protein (Rattus norvegicus, UniProt P16257)
- Sequence (P16257 whole entry, looked up): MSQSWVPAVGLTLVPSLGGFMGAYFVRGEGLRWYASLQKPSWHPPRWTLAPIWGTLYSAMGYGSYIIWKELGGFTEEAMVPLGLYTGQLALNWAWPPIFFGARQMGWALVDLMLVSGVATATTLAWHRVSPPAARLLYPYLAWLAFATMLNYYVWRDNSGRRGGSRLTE
- experiment-notes: Binding affinity against mitochondrial DBI complex (peripheral benzodiazepine receptor) using primary cultures of glial cells
measure: Ki (µM)

See these solved cases before continuing.
# query: Ki | item `Cc1ccc(-c2[nH]c3ccc(C)cc3c2CC(=O)N(C)C)cc1` | system: Translocator protein (Rattus norvegicus, UniProt P16257) 0.15

Moving on to the next molecule: `CCCN(CCC)C(=O)Cc1c(-c2cccc(Cl)c2)[nH]c2ccccc12` 0.678

Moving on to the next molecule: `CCCCCCN(CCCCCC)CCc1c(-c2ccc(F)cc2)[nH]c2ccccc12` 0.2

Moving on to the next molecule: `CCCN(CCC)C(=O)Cc1c2n(c3ccccc13)CCCc1ccccc1-2` 0.328

Moving on to the next molecule: `CCCCN(CCCC)C(=O)Cc1c(-c2ccc(F)cc2)[nH]c2ccccc12` 0.045

P = O=C(Cc1c(-c2ccccc2)[nH]c2ccccc12)N1CCCC1
Q = CCCN(CCC)C(=O)C(C)c1c(-c2ccc(Cl)cc2)[nH]c2ccccc12 (stereo not given)
R = CCCN(CCC)C(=O)Cc1c(-c2ccc(C)cc2)[nH]c2ccc(C)cc12
Sort these molecules on Ki so the largest reading comes first. In plain terms: list the labels in the order you were asked to. Q, P, R

====

What follows is a record of IC50 for Gastrin/cholecystokinin type B receptor (Rattus norvegicus, UniProt P30553).

See these solved cases before continuing.
Would you kindly share the measured IC50 for `CCCN(CCC)C(=O)Cc1c(-c2ccccc2)[nH]c2c(F)cccc12` ? > 1000 nM

Moving on to the next compound: `CCCCCCNC(=O)Cc1c(-c2ccccc2)[nH]c2ccccc12` > 1000 nM

***
Would you kindly share the measured IC50 for `CCCN(CCC)C(=O)Cc1c(-c2ccc(Cl)cc2)n(C)c2ccccc12` ? > 1000 nM

Moving on to the next compound: `CCCN(CCC)C(=O)Cc1c(-c2ccc(Br)cc2)[nH]c2ccccc12` > 1000 nM

====

- assayed-system: Adrenergic receptor alpha
- experiment-notes: Inhibitory activity by measuring its ability to displace [3H]clonidine from alpha-adrenergic receptor in rat brain
- Assay type: tissue-based
measure: IC50

See these solved cases before continuing.
Would you kindly share the measured IC50 for `CCCN(CCC)C(=O)CCc1c(-c2ccc(Cl)cc2)[nH]c2ccc(Cl)cc12` ? > 1000 nM

Moving on to the next molecule: `CCCCCCN(CCCCCC)C(=O)Cc1c(-c2ccccc2)[nH]c2ccc(Cl)cc12` > 1000 nM

Moving on to the next molecule: O=C1Cc2c([nH]c3ccccc23)-c2ccccc2N1 [PAULLONE] > 1000 nM

***
Would you kindly share the measured IC50 for `CCCN(CCC)C(=O)Cc1c(-c2ccc(Cl)cc2)[nH]c2ccc(Cl)cc12` ? > 1000 nM

Moving on to the next molecule: `CCCN(CCC)C(=O)/C=C/c1c(-c2ccc(Cl)cc2)[nH]c2ccccc12` > 1000 nM

====

- assayed-system: GABA-A receptor; anion channel
- experiment-notes: Inhibitory activity at GABA A receptor, measured by the ability to displace [35S]TBPS from GABA A receptor in rat brain
- Format: tissue-based
Below, each entry is listed alongside its reported IC50.

# query: IC50 | item `CCCCCCNC(=O)Cc1c(-c2ccc(F)cc2)[nH]c2ccccc12` | system: GABA-A receptor; anion channel > 1 µM

***
# query: IC50 | item `CCCN(CCC)C(=O)Cc1c(-c2cccs2)[nH]c2ccc(Cl)cc12` | system: GABA-A receptor; anion channel > 1 µM

Moving on to the next compound: `CCCCCCN(CCCCCC)C(=O)Cc1c2n(c3ccccc13)Cc1ccccc1-2` > 1 µM

Moving on to the next compound: `CCCN(CCC)C(=O)Cc1c(-c2ccc(Cl)cc2)n(C)c2ccccc12` > 1 µM

====

- assayed-system: Translocator protein (Rattus norvegicus)
- experiment-notes: Binding affinity against mitochondrial DBI complex (peripheral benzodiazepine receptor) using primary cultures of glial cells
pKi: −log10 of the molar value.
measure: pKi

Would you kindly share the measured pKi for `CCCCCN(CCCCC)C(=O)Cc1c(-c2ccc(F)cc2)[nH]c2ccccc12` ? 7.82

Moving on to the next compound: `CCCCCCN(CCCCCC)C(=O)Cc1c(-c2ccc(Cl)cc2)[nH]c2ccc(Cl)cc12` 8.44

Moving on to the next compound: `CCCN(CCC)C(=O)Cc1c(-c2cccs2)[nH]c2ccccc12` 6.52

Moving on to the next compound: `CCCCCCN(CCCCCC)C(=O)Cc1c(-c2ccc(F)cc2)[nH]c2ccccc12` 8.36

Moving on to the next compound: `CCCCCCN(CCCCCC)C(=O)Cc1c(-c2ccccc2)[nH]c2ccc(Cl)cc12` 8.39

1 = CCCN(CCC)C(=O)Cc1c(-c2ccccc2)[nH]c2c(F)cccc12
2 = O=C(Cc1c(-c2ccccc2)[nH]c2ccccc12)N1CCCCC1
3 = CCCCCCNC(=O)Cc1c(-c2ccccc2)[nH]c2ccccc12
4 = CCCCCCN(CCCCCC)C(=O)Cc1c(-c2ccc(F)cc2)[nH]c2ccc(Cl)cc12
Sort these compounds on pKi so the largest reading comes first. In plain terms: list the labels in the order you were asked to. 4, 3, 1, 2
(4: 8.64, 3: 7.02, 1: 6.68, 2: 6.46)

P = CCCN(CCC)C(=O)Cc1cn(Cc2ccc(Br)cc2)c2ccccc12
Q = CCCN(CCC)C(=O)Cc1c(-c2ccc(Cl)cc2)n(C)c2ccccc12
R = CCCN(CCC)C(=O)Cc1c2n(c3ccccc13)Cc1ccccc1-2
S = CCCN(CCC)C(=O)Cc1c(-c2ccc(Cl)cc2)[nH]c2ccccc12
Sort these compounds on pKi so the largest reading comes first. In plain terms: list the labels in the order you were asked to. R, S, P, Q

1 = CCCCCCN(C)C(=O)Cc1c(-c2ccc(F)cc2)[nH]c2ccccc12
2 = CCCN(CCC)C(=O)Cc1c(-c2ccc(Br)cc2)[nH]c2ccccc12
3 = O=C(Cc1c(-c2ccc(F)cc2)[nH]c2ccccc12)Nc1ccccc1Br
4 = CCCN(CCC)C(=O)CCc1c(-c2ccc(Cl)cc2)[nH]c2ccc(Cl)cc12
Sort these compounds on pKi so the largest reading comes first. In plain terms: list the labels in the order you were asked to. 4, 1, 2, 3
(4: 7.15, 1: 6.87, 2: 6.67, 3: 6.32)

====

- assayed-system: Translocator protein (Rattus norvegicus)
- experiment-notes: Binding affinity against mitochondrial DBI complex (peripheral benzodiazepine receptor) using primary cultures of glial cells
pKi: −log10 of the molar value.
measure: pKi

Would you kindly share the measured pKi for `CCCN(CCC)C(=O)Cc1c(-c2ccccc2)[nH]c2ccccc12` ? 7.00

1 = CCCN(CCC)C(=O)Cc1c(-c2ccc(I)cc2)[nH]c2ccccc12
2 = CCCN(CCC)C(=O)/C=C/c1c(-c2ccc(Cl)cc2)[nH]c2ccccc12
3 = CCCN(CCC)C(=O)Cc1c(-c2ccc(F)cc2)[nH]c2ccccc12
// smallest pKi at index 0, largest at the end In plain terms: list the labels in the order you were asked to. 2, 1, 3
(2: 6.40, 1: 6.67, 3: 7.00)
